# Tested on: S. cerevisiae strain AD3Δ ScErg11 I471T expressing ScLDM6×His I471T
# PROCEDURE TEXT: Broth microdilution drug susceptibility assay (MIC80), strain AD3Δ ScErg11 I471T
# Assay type: cell-based, Saccharomyces cerevisiae
# DETAILS: strain AD3Δ ScErg11 I471T; not corrected for expression
Starred links: 1 amine or outer side, 2 acyl side, 3 side chain; linkers in the order of their positions; H or OH if unused. Positions of bridges follow the written chain, without caps; N, C: chain ends. Non-standard residues stand in square brackets, D forms with d. Residues, ends and D or L forms follow the SMILES beside them. *: point of attachment. hTyr(3S-OH,4S-OH,3'-OSO3H) = N[C@H](C(=O)O)[C@H](O)[C@@H](O)c1ccc(O)c(OS(=O)(=O)O)c1; Orn(4R-OH,5R-OH) = O=C([C@H](C[C@@H](O)[C@@H](O)N[*:3])N[*:1])[*:2]; Pro(3S-OH,4S-Me) = C[C@H]1CN[C@H](C(=O)O)[C@H]1O; X1 = CCCCCOc1ccc(-c2cc(-c3ccc(C(=O)*)cc3)no2)cc1; Gln(3R-OH) = NC(=O)C[C@@H](O)[C@H](N)C(=O)O; Hyp = O=C(O)[C@@H]1C[C@@H](O)CN1
VALUE KIND: increased susceptibility compared with AD3Δ

MOLECULE	EXPERIMENTAL VALUE
CCC(C)n1ncn(-c2ccc(N3CCN(c4ccc(OCC5COC(Cn6cncn6)(c6ccc(Cl)cc6Cl)O5)cc4)CC3)cc2)c1=O (stereo not drawn)	1.4 fold
CCCCCOc1ccc(-c2cc(-c3ccc(C(=O)N[C@H]4C[C@@H](O)[C@@H](O)NC(=O)[C@@H]5[C@@H](O)[C@@H](C)CN5C(=O)[C@H]([C@H](O)CC(N)=O)NC(=O)[C@H]([C@H](O)[C@@H](O)c5ccc(O)c(OS(=O)(=O)O)c5)NC(=O)[C@@H]5C[C@@H](O)CN5C(=O)[C@H]([C@@H](C)O)NC4=O)cc3)no2)cc1 [MCF, micafungin] (X1-[Orn(4R-OH,5R-OH)]T[Hyp][hTyr(3S-OH,4S-OH,3'-OSO3H)][Gln(3R-OH)][Pro(3S-OH,4S-Me)]; lactam 1-C)	not
C[C@@H]1[C@H](O)[C@@H](C)/C=C/C=C/C=C/C=C/C=C/C=C/C=C/[C@H](O[C@@H]2O[C@H](C)[C@@H](O)[C@H](N)[C@@H]2O)C[C@@H]2O[C@](O)(C[C@@H](O)C[C@@H](O)[C@H](O)CC[C@@H](O)C[C@@H](O)CC(=O)O[C@H]1C)C[C@H](O)[C@H]2C(=O)O	not

###

# TEST SYSTEM: ScLDM6×His I471T (Saccharomyces cerevisiae, UniProt P10614, I471T)
# Construct: structurally aligned mutations in recombinant hexahistidine-tagged full-length Saccharomyces cerevisiae LDM6×His (ScLDM6×His); 6×His (hexahistidine) (C); made in house; host or cells: Saccharomyces cerevisiae strain AD3Δ ScErg11 I471T (overexpression from the PDR5 locus, native ERG11 disrupted)
# Sequence (P10614 whole entry I471T): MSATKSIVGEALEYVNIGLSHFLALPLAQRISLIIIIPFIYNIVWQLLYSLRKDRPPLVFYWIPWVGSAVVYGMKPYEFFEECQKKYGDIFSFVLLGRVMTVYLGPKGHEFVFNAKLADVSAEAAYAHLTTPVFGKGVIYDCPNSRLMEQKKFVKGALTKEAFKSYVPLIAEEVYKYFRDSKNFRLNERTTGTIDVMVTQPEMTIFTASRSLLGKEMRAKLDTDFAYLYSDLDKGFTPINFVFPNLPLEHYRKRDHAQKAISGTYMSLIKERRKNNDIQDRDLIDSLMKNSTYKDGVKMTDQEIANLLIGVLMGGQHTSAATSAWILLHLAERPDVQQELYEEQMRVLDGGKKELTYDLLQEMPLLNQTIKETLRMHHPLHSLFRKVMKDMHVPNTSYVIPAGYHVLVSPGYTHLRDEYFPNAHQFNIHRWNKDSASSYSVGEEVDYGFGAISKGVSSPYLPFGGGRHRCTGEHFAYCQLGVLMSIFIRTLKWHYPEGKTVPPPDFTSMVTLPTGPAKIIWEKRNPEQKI
# PROCEDURE TEXT: Type II azole binding to affinity purified ScLDM6×His I471T
# DETAILS: ScLDM6×His I471T; (± SEM)
VALUE KIND: Kd
Hi, when you answer, please include the unit after the number. Thanks!

> print(dat)
                                   compound  experimental.value
1  C[C@@H](c1ncncc1F)[C@](O)(Cn1cncn1)c1ccc(F)cc1F              580 nM

// Kd value for CCC(C)n1ncn(-c2ccc(N3CCN(c4ccc(OCC5COC(Cn6cncn6)(c6ccc(Cl)cc6Cl)O5)cc4)CC3)cc2)c1=O (centres unmarked) : 700 nM

Where these numbers come from: paper PMC8621857
